Target: Trx-6×His-BCL6 (human BCL6 BTB domain covering amino-acid sequence 5-129) (Homo sapiens)
Construct: made in house
Assay: HTRF assay (BCL6 / BCOR peptide)
Format: binding
Details: 1 nM Trx-6×His-BCL6, 300 nM BCOR-AF633 peptide, 2 hours incubation at room temperature
Entries and their measured HTRF avg pIC50 follow.
recorded.metric: HTRF avg pIC50

molecule=Cn1c(=O)c2c(c3cc(Nc4ccnc(Cl)c4Cl)ccc31)N[C@@H](C1CC1)C(F)(F)CO2 subject_of_test="Trx-6×His-BCL6 (human BCL6 BTB domain covering amino-acid sequence 5-129) (Homo sapiens)" assay_value=7.86
molecule="COC1CN(c2ncc(Cl)c(Nc3ccc4c(c3)c3c(c(=O)n4C)OCC(F)(F)[C@H](C4CC4)N3)n2)C1 [Example 11w]" subject_of_test="Trx-6×His-BCL6 (human BCL6 BTB domain covering amino-acid sequence 5-129) (Homo sapiens)" assay_value=8.43
molecule=Cn1c(=O)c2c(c3cc(Nc4nc(N5CCC[C@H](O)C5)ncc4Cl)ccc31)N[C@@H](C1CC1)C(F)(F)CO2 subject_of_test="Trx-6×His-BCL6 (human BCL6 BTB domain covering amino-acid sequence 5-129) (Homo sapiens)" assay_value=8.51
molecule="C[C@H]1CN(c2ncc(Cl)c(Nc3ccc4c(c3)c3c(c(=O)n4C)OCC(F)(F)[C@H](C4CC4)N3)n2)CCC1(F)F (single isomer, unassigned) [Example 14a]" subject_of_test="Trx-6×His-BCL6 (human BCL6 BTB domain covering amino-acid sequence 5-129) (Homo sapiens)" assay_value=7.81
molecule=C[C@@H]1C[C@H](N(C)C)CN(c2ncc(Cl)c(Nc3ccc4c(c3)c3c(c(=O)n4C)OCC(F)(F)[C@H](C4CC4)N3)n2)C1 subject_of_test="Trx-6×His-BCL6 (human BCL6 BTB domain covering amino-acid sequence 5-129) (Homo sapiens)" assay_value=8.44
